Target: Polyunsaturated fatty acid lipoxygenase ALOX12 (Homo sapiens)
Test: qHTS Assay for Inhibitors of 12-hLO (12-human lipoxygenase); also: % is scaled to controls: 0 for no effect and ±100 for the full control effect; nearly all actives have a fitted effect of over 55% in size
Details: purified 12-hLO, xylenol orange hydroperoxide absorbance; series mostly up to 57.1 µM
Out of some 150,000 compounds screened, about 190 (0.13%) were called active. About 2% were inconclusive and are not listed. This is one part of a sample in which actives are shown more often than they occur.
EXPERIMENTAL READOUT: activity change, negative = inhibition

>>> observed_result("COc1cc(NS(=O)(=O)c2ccc(N=Cc3c(C)[nH]n(-c4ccccc4)c3=O)cc2)nc(OC)n1")
"inactive"
>>> observed_result("COCOc1cc(OC)ccc1C(=O)/C=C/c1ccc([N+](=O)[O-])cc1")
"inactive"
>>> observed_result("CCc1nnc(NC(=O)/C=C/c2ccc(C)o2)s1")
"inactive"
>>> observed_result("CCCCC/C=C\\C/C=C\\CCCCCCCCCC(N)=O")
"inactive"
>>> observed_result("C=CCN(c1ccc(C(=O)Nc2cc(C)cc(C)c2)cc1)S(C)(=O)=O")
"inactive"
>>> observed_result("NC(=O)c1ccccc1N=Cc1ccc2ccccc2c1")
"inactive"
>>> observed_result("NNc1nnc(NN)c2ccccc12")
"-2.71% [at 0.00818 µM] (inactive)"
>>> observed_result("O=C(NCc1cccs1)c1ccc(Br)o1")
"inactive"
>>> observed_result("CCCc1cc(-c2n[nH]c(=S)n2Cc2ccccc2)cs1")
"inactive"
>>> observed_result("CC(C)(C)OC(=O)NCCCCC1=CC2=CC(=O)C(C)(OC(=O)c3cccs3)C(=O)C2=CO1 (configuration not stated)")
"inactive"
>>> observed_result("Cc1ccccc1C(CC(=O)c1cccs1)C(C#N)C#N (configuration not stated)")
"inactive"
>>> observed_result("COc1ccc(C2CC(=O)Oc3ccc(C(C)(C)C)cc32)cc1 (configuration not stated)")
"-4.97% [at 0.00818 µM] (inactive)"
>>> observed_result("COC(=O)C1=C(C(=O)OC)[C@@H]2N(C)c3ccccc3[C@@]23C[C@@H](C(=O)OC)N(S(=O)(=O)c2ccc(Br)cc2)C3=N1")
"2.4% [at 11.4 µM] (inactive)"
>>> observed_result("Cc1nc2ccccc2c(=O)n1CCCn1ccnc1")
"inactive"
>>> observed_result("O=C(O)CC(Cc1ccccc1)C(=O)Nc1ccc([N+](=O)[O-])cc1 (configuration not stated)")
"inactive"
>>> observed_result("COc1ccc(CCNc2cc(C)nc3c(-c4ccc(Cl)cc4)c(C)nn23)cc1OC")
"inactive"
>>> observed_result("O=C(Cn1cnc2ccccc21)N/N=C/c1ccco1")
"inactive"
>>> observed_result("COc1cc(OC)c2c(-c3cccc(-c4cccc(N)c4)c3)cc(=O)oc2c1")
"-1.39% [at 0.00818 µM] (inactive)"
>>> observed_result("COCCN1C(=O)N[C@@H](CCc2ccccc2)[C@H](C(C)=O)[C@H]1C")
"1.29% [at 11.4 µM] (inactive)"
>>> observed_result("Cc1nn(-c2ccccc2)c(C)c1/C=N/NC(=O)CSc1nc2ccccc2c(=O)n1-c1ccccc1")
"inactive"
>>> observed_result("CCCCC/C=C\\C[C@H](O)/C=C/C=C/C=C/[C@@H](O)CCCC(=O)O")
"inactive"
>>> observed_result("O=C(CN1CCN(c2ccc(O)cc2)CC1)NC1CCCc2ccccc21 (configuration not stated)")
"inactive"

These entries and their values trace back to PubChem BioAssay AID1452.
